Hey, just so you know, these numbers are from the supplement of paper PMC10724198.

Tested on: Saccharomyces cerevisiae
Experiment: protein stability index of tFT-peptide fusion (C-terminal peptide) (PSI (0-1 scale)); higher = more stable (slower turnover)
Settings: genetic background: wild type; temperature: 30 C
Answer NOT MET if protein stability index is under 0.7, and MET if it is 0.7 or more.

[Q] Decide: protein stability index of KTSPTCHNMFDV [SDD4 C-terminal 12 aa] >= 0.7?
[A] NOT MET

[Q] Test whether the sequence GEKKQKGQALQF [RPL42A C-terminal 12 aa] records protein stability index of 0.7 or higher.
[A] NOT MET

[Q] Check if protein stability index >= 0.7 (inclusive). Item: DNDIYNTISEVR [RAD9 C-terminal 12 aa]
[A] MET

[Q] Determine whether this sequence has protein stability index no lower than 0.7: LKFEPTQEIVES [ITR2 C-terminal 12 aa]
[A] NOT MET

[Q] Test whether the sequence RVVDLVEHVAKA [TDH2 C-terminal 12 aa] records protein stability index of 0.7 or higher.
[A] NOT MET

[Q] Is reported protein stability index greater than or equal to 0.7 here: YNLKNDILTNLE [SWI1 C-terminal 12 aa]
[A] NOT MET

[Q] Decide: is the reported value of protein stability index for PPFDFRLLFLLV [YGL165C C-terminal 12 aa] equal to or greater than 0.7?
[A] NOT MET

[Q] Identify whether the reported protein stability index of the following sequence is 0.7 or greater: ELPGVAFLSEKK [PGK1 C-terminal 12 aa]
[A] NOT MET

[Q] Quick check, protein stability index >= 0.7? NTFRKIKGDKKN [MDJ1 C-terminal 12 aa]
[A] MET
